# maps each entry to its IC50
target: recombinant full-length USP7 (Homo sapiens, UniProt Q93009); construct: A 25 μl reaction volume containing recombinant full-length USP7 (62 pM); experiment: USP7-mediated ubiquitin-rhodamine cleavage assay; type: biochemical; conditions: recombinant full-length USP7 62 pM; ubiquitin-rhodamine 100 nM; 30-minute incubation with compound, 1 hour reaction at room temperature; read-out: Potency: USP7 IC50
Sequence (Q93009 whole entry): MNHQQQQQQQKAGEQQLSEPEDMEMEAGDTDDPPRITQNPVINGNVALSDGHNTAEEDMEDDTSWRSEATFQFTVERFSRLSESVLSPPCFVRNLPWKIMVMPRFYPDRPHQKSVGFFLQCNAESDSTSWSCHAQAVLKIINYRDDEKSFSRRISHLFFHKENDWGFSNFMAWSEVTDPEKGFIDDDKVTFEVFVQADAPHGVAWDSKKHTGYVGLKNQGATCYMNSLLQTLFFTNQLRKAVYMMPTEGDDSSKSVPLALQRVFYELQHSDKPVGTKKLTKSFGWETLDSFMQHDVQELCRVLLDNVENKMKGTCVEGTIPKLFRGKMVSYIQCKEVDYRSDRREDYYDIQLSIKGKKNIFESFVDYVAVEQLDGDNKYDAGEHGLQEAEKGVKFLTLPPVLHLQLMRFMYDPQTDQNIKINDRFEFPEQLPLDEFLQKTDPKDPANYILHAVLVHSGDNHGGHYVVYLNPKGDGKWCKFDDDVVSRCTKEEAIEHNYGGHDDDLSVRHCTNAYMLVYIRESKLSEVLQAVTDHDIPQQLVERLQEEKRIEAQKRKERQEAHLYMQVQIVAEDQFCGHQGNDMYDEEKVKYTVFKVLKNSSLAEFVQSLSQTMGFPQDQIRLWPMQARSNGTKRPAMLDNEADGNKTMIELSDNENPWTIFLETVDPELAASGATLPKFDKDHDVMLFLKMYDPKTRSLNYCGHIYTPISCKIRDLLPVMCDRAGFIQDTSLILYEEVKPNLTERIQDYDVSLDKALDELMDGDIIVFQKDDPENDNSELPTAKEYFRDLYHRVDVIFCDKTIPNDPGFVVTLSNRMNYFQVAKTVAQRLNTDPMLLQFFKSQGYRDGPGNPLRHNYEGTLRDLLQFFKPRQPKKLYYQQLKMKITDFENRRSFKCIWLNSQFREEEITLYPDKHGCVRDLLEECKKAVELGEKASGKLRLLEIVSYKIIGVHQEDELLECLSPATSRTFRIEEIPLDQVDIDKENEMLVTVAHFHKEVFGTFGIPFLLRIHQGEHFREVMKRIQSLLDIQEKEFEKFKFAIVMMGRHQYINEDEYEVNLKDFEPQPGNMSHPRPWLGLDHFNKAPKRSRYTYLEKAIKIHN
Structures can show the parent of a compound that is named as a salt.

{"molecule": "Cc1cc(Cl)cc(-c2ccnc3cc(CN4C(=O)CCC4=O)sc23)c1O[C@@H]1CN[C@@H](CF)C1 [Example 101]", "IC50": "< 1000 nM"}
{"molecule": "Cc1cc(Cl)cc(-c2ccnc3cc(CN4C(=O)NC(C)(C)C4=O)sc23)c1OC1CCNCC1 [Example 185]", "IC50": "< 1000 nM"}
{"molecule": "Cc1cc(Cl)cc(-c2ncnc3cc(CN4C(=O)C5C(C4=O)C5(C)C)sc23)c1O[C@@H]1CNC[C@@H]1C (stereo partly shown) [Example 349]", "IC50": "< 1000 nM"}
{"molecule": "Cc1cc(Cl)cc(-c2ccnc3ccsc23)c1O[C@H]1CCCN(C)C1 [Example 240]", "IC50": "> 30000 nM"}
{"molecule": "Cc1cc(Cl)cc(-c2ccnc3cc(CN4C(=O)CCC4=O)sc23)c1O[C@H]1CCCNC1 [Example 211]", "IC50": "< 1000 nM"}
{"molecule": "Cc1cc(Cl)cc(-c2ccnc3cc(CN4C(=O)CCC4=O)sc23)c1O[C@@H]1CN(CC(C)(C)C)C[C@@H]1F [Example 336]", "IC50": "< 1000 nM"}
{"molecule": "Cc1cc(Cl)cc(-c2ccnc3cc(CN4C(=O)C5C(C4=O)C5(C)C)sc23)c1O[C@H]1CCCN[C@@H]1C (stereo partly shown) [Example 364]", "IC50": "< 1000 nM"}
{"molecule": "Cc1cc(Cl)cc(-c2ncnc3cc(CN4C(=O)C5C(C4=O)C5(C)C)sc23)c1OCC1(C)CNC1 (stereo not shown) [Example 395]", "IC50": "< 1000 nM"}
{"molecule": "CCC(O)c1cc2nccc(-c3cc(Cl)cc(C)c3OC3CC4CC3CN4)c2s1 (stereo not shown) [Example 197]", "IC50": "1000 to 10000 nM"}
{"molecule": "CCN1C[C@H]2C[C@@H]1[C@H](Oc1c(C)cc(Cl)cc1-c1ccnc3cc(CN4C(=O)C5C(C4=O)C5(C)C)sc13)C2 (stereo partly shown) [Example 332]", "IC50": "< 1000 nM"}
{"molecule": "Cc1cc(Cl)cc(-c2ccnc3cc(CN4C(=O)CCC4=O)sc23)c1OC1CN2CCC1CC2 (stereo not shown) [Example 318]", "IC50": "< 1000 nM"}
{"molecule": "CCN1CCC(Oc2c(C)cc(Cl)cc2-c2ccnc3cc(CN4C(=O)CCC4=O)sc23)CC1 [Example 176]", "IC50": "< 1000 nM"}
{"molecule": "Cc1cc(Cl)cc(-c2ccnc3cc(CO)sc23)c1O[C@@H]1CN[C@H](C)C1 [Example 62]", "IC50": "10000 to 30000 nM"}
{"molecule": "CCC(O)c1cc2ncnc(-c3cc(Cl)cc(C)c3OCC3(C)CNC3)c2s1 (stereo not shown) [Example 47]", "IC50": "1000 to 10000 nM"}
{"molecule": "CCN1CC(Oc2c(C)cc(Cl)cc2-c2ccnc3cc(CN4C(=O)C5C(C4=O)C5(C)C)sc23)C(C)(F)C1 (stereo not shown) [Example 374, dihydrochloride]", "IC50": "< 1000 nM"}
{"molecule": "Cc1cc(Cl)cc(-c2ccnc3cc(Cn4c(=O)ccn(C)c4=O)sc23)c1OC1CCN(C2COC2)CC1 [Example 255]", "IC50": "< 1000 nM"}
{"molecule": "Cc1cc(Cl)cc(-c2ccnc3cc([C@H](C)N4C(=O)CCC4=O)sc23)c1OC1CCNCC1 [Example 1]", "IC50": "1000 to 10000 nM"}
{"molecule": "CC(=O)NCc1cc2nccc(-c3cc(Cl)cc(C)c3O[C@H]3CCCNC3)c2s1 [Example 263]", "IC50": "1000 to 10000 nM"}
{"molecule": "Cc1cc(Cl)cc(-c2ccnc3cc(CN4C(=O)C5C(C4=O)C5(C)C)sc23)c1OC1CN2CCC1CC2 (stereo not shown) [Example 316]", "IC50": "< 1000 nM"}
{"molecule": "Cc1cc(Cl)cc(-c2ccnc3cc(CN4C(=O)CCC4=O)sc23)c1OC1CNCC1(C)C (stereo not shown) [Example 345]", "IC50": "< 1000 nM"}
{"molecule": "Cc1cc(Cl)cc(-c2ccnc3cc(CN4C(=O)C5CC5C4=O)sc23)c1O[C@@H]1CCNC[C@H]1F (stereo partly shown) [Example 293]", "IC50": "< 1000 nM"}
{"molecule": "Cc1cc(Cl)cc(-c2ccnc3cc(CN4C(=O)CN(C)C4=O)sc23)c1OCC1(C)CNC1 [Example 25]", "IC50": "< 1000 nM"}
{"molecule": "Cc1cc(Cl)cc(-c2ccnc3cc(CN4C(=O)CCC4=O)sc23)c1O[C@@H]1CN(C2CCC2)C[C@@H]1F [Example 322]", "IC50": "< 1000 nM"}
{"molecule": "Cc1cc(C(F)(F)F)cc(-c2ccnc3cc(CN4C(=O)CCC4=O)sc23)c1O[C@H]1CCCNC1 [Example 254]", "IC50": "< 1000 nM"}
{"molecule": "Cc1cc(Cl)cc(-c2ncnc3cc(CN4C(=O)C5CC5C4=O)sc23)c1O[C@@H]1CCNC[C@H]1F (stereo partly shown) [Example 309, dihydrochloride]", "IC50": "< 1000 nM"}
{"molecule": "Cc1cc(Cl)cc(-c2ccnc3cc(CN4C(=O)CCC4=O)sc23)c1O[C@@H]1CN(CCO)C[C@@H]1F [Example 302]", "IC50": "< 1000 nM"}
{"molecule": "Cc1cc(Cl)cc(-c2ncnc3cc(CN4C(=O)C5C(C4=O)C5(C)C)sc23)c1O[C@H]1CC[C@H](C)NC1 (stereo partly shown) [Example 339, dihydrochloride]", "IC50": "< 1000 nM"}
{"molecule": "Cc1cc(Cl)cc(-c2ccnc3cc(CN4C(=O)C5C(C4=O)C5(C)C)sc23)c1OC1(C)CNC1 (stereo not shown) [Example 393, dihydrochloride]", "IC50": "< 1000 nM"}
